Each item that follows carries a reported CC50.
System: HepG2 cells
Assay: Cytotoxicity in HepG2 cells, 4 days, Resazurin assay
Conditions: read-out: HepG2 4 days CC50; HepG2 cells, 4 days, Resazurin

Some compounds with recorded CC50:
- O=C(Nc1ccc(F)cc1)c1cccc(S(=O)(=O)N2CCOCC2)c1 [Compound 41]: > 100 µM
- CC(=O)N1CCC(NS(=O)(=O)c2cccc(C(=O)Nc3ccc(F)cc3)c2)CC1 [Compound 39]: > 100 µM
- Cc1cc(NC(=O)c2cccc(S(=O)(=O)NC3CCC(O)C3)c2)ccc1F (single isomer, unassigned) [Compound 145c]: > 25 µM

Notebook entry, HepG2 cells assay: CC50 of CN(C)S(=O)(=O)c1cccc(C(=O)Nc2ccc(F)cc2)c1 [Compound 37] = ?
> 100 µM

Notebook entry, HepG2 cells assay: CC50 of O=C(Nc1ccc(F)cc1)c1cccc(S(=O)(=O)NC2CCC2)c1 [Compound 5] = ?
57.7 µM

Notebook entry, HepG2 cells assay: CC50 of O=C(Nc1cccc(F)c1)c1cccc(S(=O)(=O)NC2CCCC2)c1 [Compound 77] = ?
> 25 µM

Notebook entry, HepG2 cells assay: CC50 of CC(C)NS(=O)(=O)c1cccc(C(=O)Nc2ccc(F)cc2)c1 [Compound 47] = ?
57.5 µM

Notebook entry, HepG2 cells assay: CC50 of Cc1cc(NC(=O)c2cccc(S(=O)(=O)NC3CC(=O)N(C)C3)c2)ccc1F (racemic) [Compound 179a] = ?
> 25 µM

* * *

Experiment: Cytotoxicity in HepG2 cells, 4 days, Resazurin assay
Conditions: human, HepG2 cells
recorded.metric: CC50 at 4 days

• O=C(Nc1ccccc1)c1cccc(S(=O)(=O)NC2CC2)c1 = > 100 µM
• Cc1cc(NC(=O)c2cccc(S(=O)(=O)N3CC4(CCOC4)C3)c2)ccc1F = > 25 µM
• Cc1cc(NC(=O)c2cccc(S(=O)(=O)N[C@@H](C)C(C)C)c2)ccc1F = > 25 µM

Can you look up the measured CC50 at 4 days of `O=C(Nc1ccc(F)c(C(F)F)c1)c1cccc(S(=O)(=O)N[C@H]2CCOC2)c1F` for me?
> 25 µM

Can you look up the measured CC50 at 4 days of `Cc1cc(NC(=O)c2c(Br)ccc(S(=O)(=O)NC3(C)COC3)c2F)cc(F)c1F` for me?
> 25 µM

Can you look up the measured CC50 at 4 days of `O=C(Nc1cccc(Cl)c1)c1cc(S(=O)(=O)NC2CCCCC2)ccc1F` for me?
> 25 µM

Can you look up the measured CC50 at 4 days of `Cc1[nH]c(C(=O)Nc2ccccc2)c(C)c1S(=O)(=O)N1CCCCC1` for me?
> 50 µM

* * *

Assay: Cytotoxicity in HepG2 cells, 4 days, Resazurin assay
Conditions: human, HepG2 cells
Each item that follows carries a reported CC50 at 4 days.

• O=C(Nc1ccc(F)c(C(F)F)c1)c1cccc(S(=O)(=O)N[C@H]2CCOC2)c1 = > 25 µM
• CCC(C)(C)NS(=O)(=O)c1cccc(C(=O)Nc2ccc(F)cc2)c1 = > 25 µM

Can you look up the measured CC50 at 4 days of `C#Cc1cc(NC(=O)c2cccc(S(=O)(=O)NC(C)C)c2)ccc1F` for me?
> 25 µM

Can you look up the measured CC50 at 4 days of `Cc1cc(NC(=O)c2cccc(S(=O)(=O)N[C@H](C)C(F)(F)F)c2)ccc1F` for me?
> 25 µM

Can you look up the measured CC50 at 4 days of `O=C(Nc1ccc(F)cc1)c1cc(S(=O)(=O)NC2CCCC2)ccc1F` for me?
> 50 µM

Can you look up the measured CC50 at 4 days of `CC1(NS(=O)(=O)c2ccc(F)c(C(=O)Nc3ccc(F)c(F)c3)c2Cl)COC1` for me?
> 25 µM

Can you look up the measured CC50 at 4 days of `O=C(Nc1ccccc1)c1cccc(S(=O)(=O)NC2CCCCC2)n1` for me?
35.3 µM

Can you look up the measured CC50 at 4 days of `Cc1cc(NC(=O)c2c(F)ccc(S(=O)(=O)N[C@H]3CCOC3)c2F)ccc1F` for me?
> 25 µM

These entries and their values trace back to patent US10676429B2.
